Entry source: patent US8815919B2

Reported EC50 values follow for various compounds
systemTested: S1P1 (Homo sapiens, UniProt P21453)
Sequence (P21453 whole entry): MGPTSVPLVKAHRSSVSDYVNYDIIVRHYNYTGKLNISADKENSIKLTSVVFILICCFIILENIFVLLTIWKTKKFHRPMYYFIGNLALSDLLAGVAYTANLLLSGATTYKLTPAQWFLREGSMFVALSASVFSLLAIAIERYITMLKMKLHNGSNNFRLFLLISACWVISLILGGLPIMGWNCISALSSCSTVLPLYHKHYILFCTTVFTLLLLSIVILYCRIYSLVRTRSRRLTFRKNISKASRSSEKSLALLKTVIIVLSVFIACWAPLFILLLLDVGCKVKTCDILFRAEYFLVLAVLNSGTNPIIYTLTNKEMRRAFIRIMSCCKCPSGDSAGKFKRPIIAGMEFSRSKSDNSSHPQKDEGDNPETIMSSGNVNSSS
experimentalProtocol: S1P1 internalization assay in S1P1-U2OS cells (S1P1-EGFP), cell imaging
Format: cell-based
Parameters: host or cells: U2OS (human bone osteosarcoma epithelial cells), CMV promoter, geneticin selection
assayContext: 1 hour incubation
Structures can show the parent of a compound that is named as a salt.
measuredParameter: EC50 (nM)

compound="COCc1cc(-c2nc(-c3ccc(CNCC(=O)O)cc3)no2)ccc1-c1ccccc1C [Example 60, hydrochloride salt]" systemtested="S1P1 (Homo sapiens, UniProt P21453)" unitinfo=nM readoutvalue=1.78
compound="COCc1cc(-c2nc(-c3cc(CN(C)CC(=O)O)cc(F)c3F)no2)ccc1-c1ccccc1C [Example 126, hydrochloride salt]" systemtested="S1P1 (Homo sapiens, UniProt P21453)" unitinfo=nM readoutvalue=47
compound="COCc1cc(-c2nc(-c3ccc(CN(C)CC(=O)O)c(F)c3)no2)ccc1-c1cccc(F)c1Cl [Example 121, hydrochloride salt]" systemtested="S1P1 (Homo sapiens, UniProt P21453)" unitinfo=nM readoutvalue=6.56
compound="COCc1cc(-c2nc(-c3cccc(S(C)(=O)=O)c3)no2)ccc1N1CCCCC1C (stereo not shown) [Example 6, hydrochloride salt]" systemtested="S1P1 (Homo sapiens, UniProt P21453)" unitinfo=nM readoutvalue=4.39
compound="CC1CCCCN1c1ccc(-c2nc(-c3cccc(CN(C)CC(=O)O)c3)no2)cc1C(F)(F)F (stereo not shown) [Example 13]" systemtested="S1P1 (Homo sapiens, UniProt P21453)" unitinfo=nM readoutvalue=7.38
compound="COCc1cc(-c2nc(-c3ccc(CN(C)CC(=O)O)c(F)c3)no2)ccc1-c1cccc(F)c1C [Example 91, hydrochloride salt]" systemtested="S1P1 (Homo sapiens, UniProt P21453)" unitinfo=nM readoutvalue=5.53
compound="COCc1cc(-c2nc(-c3ccc(CNCC(=O)O)c(F)c3)no2)ccc1-c1ccccc1C [Example 83, hydrochloride salt]" systemtested="S1P1 (Homo sapiens, UniProt P21453)" unitinfo=nM readoutvalue=1.2

----------
Reported pEC50 values follow for various molecules
systemTested: S1P1 (Homo sapiens)
experimentalProtocol: S1P1 internalization assay in S1P1-U2OS cells (S1P1-EGFP), cell imaging
Format: cell-based
Parameters: host or cells: U2OS (human bone osteosarcoma epithelial cells), CMV promoter, geneticin selection
assayContext: 1 hour incubation
pEC50: −log10 of the molar value. Structures can show the parent of a compound that is named as a salt.
measuredParameter: pEC50

molecule="CCCN(CC(=O)O)Cc1cccc(-c2noc(-c3ccc(-c4ccccc4C)c(COC)c3)n2)c1 [Example 77, hydrochloride salt]" readoutvalue=7.28
molecule=COCc1cc(-c2nc(-c3cccc(CN(C)CC(=O)O)c3)no2)ccc1-c1ccccc1 readoutvalue=8.16
molecule=COCc1cc(-c2nc(-c3cccc(CCN(C)CC(=O)OC(C)(C)C)c3)no2)ccc1-c1ccccc1C readoutvalue=6.71
molecule="COCc1cc(-c2nc(-c3ccc(CN(C)CC(=O)O)c(OC)c3)no2)ccc1-c1ccccc1C [Example 79, hydrochloride salt]" readoutvalue=7.32
molecule="CCN(CC(=O)O)Cc1cccc(-c2noc(-c3ccc(-c4ccccc4C)c(COC)c3)n2)c1 [Example 78, hydrochloride salt]" readoutvalue=7.46
molecule=COCc1cc(-c2nc(-c3ccc(CN(C)CC(=O)O)cc3C)no2)ccc1-c1ccccc1C readoutvalue=7.86
molecule="CCN(CCC(=O)O)Cc1cccc(-c2noc(-c3ccc(-c4ccccc4C)c(COC)c3)n2)c1 [Example 63, hydrochloride salt]" readoutvalue=8.47
molecule="COC(C)c1cc(-c2nc(-c3ccc(CN(C)CC(=O)O)cc3)no2)ccc1-c1ccccc1C (stereo not shown) [Example 140, hydrochloride salt]" readoutvalue=8.43
molecule="Cc1ccccc1-c1ccc(-c2nc(-c3ccc(CN(C)CC(=O)O)c(F)c3)no2)cc1C [Example 131, hydrochloride salt]" readoutvalue=7.79
molecule="COCc1cc(-c2nc(-c3cccc(CN(C)CC(=O)O)c3)no2)ccc1-c1ccc(F)cc1C [Example 36, hydrochloride salt]" readoutvalue=7.83
molecule="COCc1cc(-c2nc(-c3ccc(CN(C)CC(=O)O)cc3)no2)ccc1-c1ccccc1Cl [Example 118, hydrochloride salt]" readoutvalue=8.00
molecule="COCc1cc(-c2nc(-c3ccc(CN(C)CC(=O)O)cc3)no2)ccc1-c1ccccc1F [Example 54, hydrochloride salt]" readoutvalue=8.20
molecule="COCc1cc(-c2nc(-c3cccc(CN(C)CC(O)CO)c3)no2)ccc1-c1ccccc1C (stereo not shown)" readoutvalue=7.87
molecule="COc1cc(-c2noc(-c3ccc(N4CCCCC4C)c(C(F)(F)F)c3)n2)ccc1CN(C)CC(=O)O (stereo not shown) [Example 80, hydrochloride salt]" readoutvalue=7.33
molecule=Cc1ccccc1-c1ccc(-c2nc(-c3ccc(CNCCC(=O)O)cc3)no2)cc1C(F)(F)F readoutvalue=8.81
molecule="Cc1ccccc1-c1ccc(-c2nc(-c3cccc(CN(C)CC(=O)O)c3)no2)cc1C [Example 132, hydrochloride salt]" readoutvalue=6.63
molecule=Cc1ccccc1-c1ccc(-c2nc(-c3ccc(CNCCCC(=O)O)cc3)no2)cc1C(F)(F)F readoutvalue=9.10
molecule="COCc1cc(-c2nc(-c3ccc(CN(C)CC(=O)O)cc3)no2)ccc1-c1cc(F)ccc1C [Example 127, hydrochloride salt]" readoutvalue=8.06
molecule=CCc1cc(-c2noc(-c3ccc(-c4ccccc4C)c(COC)c3)n2)ccc1CN(C)CC(=O)O readoutvalue=7.63
molecule=COCc1cc(-c2nc(-c3ccc(CNCC(=O)O)cc3C)no2)ccc1-c1ccccc1C readoutvalue=8.39
molecule="C[C@H]1CCCCN1c1ccc(-c2nc(-c3cccc(CN(C)CC(=O)O)c3)no2)cc1C(F)(F)F [Example 46, hydrochloride salt]" readoutvalue=8.28
molecule="CC1CCCCN1c1ccc(-c2nc(-c3cccc(COCCC(=O)O)c3)no2)cc1C(F)(F)F (stereo not shown) [Example 12, hydrochloride salt]" readoutvalue=8.01
molecule=COCc1cc(-c2nc(-c3ccc(CN(C)CC(=O)O)c(C)c3)no2)ccc1-c1ccccc1C readoutvalue=8.12
molecule="CC1CCCCN1c1ccc(-c2nc(-c3ccc(CN(C)CC(=O)O)c(F)c3)no2)cc1C(F)(F)F (stereo not shown) [Example 85, dihydrochloride salt]" readoutvalue=7.87
molecule="CC1CCCCN1c1ccc(-c2nc(-c3cc(F)cc(CN(C)CC(=O)O)c3)no2)cc1C(F)(F)F (stereo not shown) [Example 56, hydrochloride salt]" readoutvalue=7.69
molecule="COCc1cc(-c2nc(-c3cccc(CN(CC(=O)O)CC(C)C)c3)no2)ccc1-c1ccccc1C [Example 59, hydrochloride salt]" readoutvalue=7.13
molecule="Cc1ccccc1-c1ccc(-c2nc(-c3cc(F)cc(CN(C)CC(=O)O)c3)no2)cc1C [Example 133, hydrochloride salt]" readoutvalue=7.37
molecule=COCc1cc(-c2nc(-c3ccc(OCCO)c(F)c3)no2)ccc1-c1ccccc1C readoutvalue=7.92
